Reference source: patent US10934274B2

Protein target, amino acids: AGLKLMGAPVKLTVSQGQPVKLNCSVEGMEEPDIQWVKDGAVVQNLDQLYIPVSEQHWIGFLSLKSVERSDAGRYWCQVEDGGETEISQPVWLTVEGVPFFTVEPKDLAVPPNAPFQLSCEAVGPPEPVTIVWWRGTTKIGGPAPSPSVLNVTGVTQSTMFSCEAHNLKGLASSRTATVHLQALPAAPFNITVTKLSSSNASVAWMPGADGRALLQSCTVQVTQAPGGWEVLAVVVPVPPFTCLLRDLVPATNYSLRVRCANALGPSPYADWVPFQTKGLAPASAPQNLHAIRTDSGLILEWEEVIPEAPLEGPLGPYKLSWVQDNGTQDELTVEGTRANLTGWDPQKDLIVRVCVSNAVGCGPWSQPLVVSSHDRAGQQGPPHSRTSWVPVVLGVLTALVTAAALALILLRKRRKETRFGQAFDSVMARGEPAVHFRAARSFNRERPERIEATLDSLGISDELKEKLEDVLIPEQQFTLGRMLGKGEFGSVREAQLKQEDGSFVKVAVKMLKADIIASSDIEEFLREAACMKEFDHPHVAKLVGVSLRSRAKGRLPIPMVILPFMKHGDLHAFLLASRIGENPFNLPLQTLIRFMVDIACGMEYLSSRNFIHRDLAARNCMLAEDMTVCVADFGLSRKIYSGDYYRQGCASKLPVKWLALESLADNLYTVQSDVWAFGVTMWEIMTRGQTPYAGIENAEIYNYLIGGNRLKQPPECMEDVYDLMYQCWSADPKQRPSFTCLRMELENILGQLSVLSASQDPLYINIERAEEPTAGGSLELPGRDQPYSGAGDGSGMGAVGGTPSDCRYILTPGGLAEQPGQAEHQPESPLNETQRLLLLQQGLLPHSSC

[
  {
    "molecule": "CCOc1cnn(-c2ccc(C(F)(F)F)cc2C)c1C(=O)Nc1ccc(Oc2ccnc3cc(OC)c(OC)cc23)cn1 [Compound 102]",
    "Kd": "100 to 1000 nM"
  },
  {
    "molecule": "COc1cc2c(Oc3ccc(NC(=O)c4nn(-c5cnc(N)nc5)cc4OCC(F)(F)F)c(F)c3)ccnc2cc1OC(C)C [Compound 243]",
    "Kd": "< 100 nM"
  },
  {
    "molecule": "CCOc1cn(-c2cccnc2)nc1C(=O)Nc1ccc(Oc2ccnc3cc(OC(C)CC)c(OC)cc23)cn1 (centres unmarked) [Compound 206]",
    "Kd": "≥ 1000 nM"
  },
  {
    "molecule": "CCOc1sc(-c2cccnc2)nc1C(=O)Nc1ccc(Oc2ccnc3cc(OC)c(OC)cc23)cn1 [Compound 45]",
    "Kd": "< 100 nM"
  },
  {
    "molecule": "CCOc1cn(-c2cnccc2CO)nc1C(=O)Nc1ccc(Oc2ccnc3cc(OC)c(OC)cc23)cc1F [Compound 209]",
    "Kd": "< 100 nM"
  }
]
